Source listed as paper PMC8595303.

Form field: Kd (one value per entry).
# ASSAY SYSTEM: T1, human mature TGFβ3 (Homo sapiens, UniProt P10600)
# T1 construct: Transforming Growth Factor-beta 3, human, mature form (cut from the precursor); also called TGFb3; source: bought: PeproTech
# T1 sequence (P10600 301-412): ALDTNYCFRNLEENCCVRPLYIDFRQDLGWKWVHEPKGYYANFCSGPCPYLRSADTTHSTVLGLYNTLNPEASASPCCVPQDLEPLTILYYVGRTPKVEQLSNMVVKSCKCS
# METHOD: SPR; Biacore T200; antibody captured on a Protein A sensor chip (about 90 RU); mature TGFβ isoform injected, five-fold dilutions 0.008 nM to 5 nM; HBS-EP pH 7.4, 150 mM NaCl; 37 °C; 100 μl/min; 3 min association, 60 min dissociation; one-to-one Langmuir model, global fit
# SETTINGS: both partners purified

[
  {
    "BINDER": "humanized 4A11 variant 1 (antibody, V domains shown, as the VH of m7 (h4A11.v2): rbt4A11 CDRs and rabbit Vernier residues grafted on human germline IGHV3-48*01; rbt4A11 CDRs and rabbit Vernier residues (VL positions 2, 4, 36, 43, 58) grafted on human germline IGKV4-1*01; human IgG1; also called h4A11.v1; v1; source: Expi293F, transient, purified (Protein A, SEC)) VH: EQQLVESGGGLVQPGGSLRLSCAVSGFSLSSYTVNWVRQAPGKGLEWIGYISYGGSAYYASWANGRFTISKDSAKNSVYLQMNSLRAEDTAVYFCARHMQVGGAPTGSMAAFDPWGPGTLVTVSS VL: DAVLTQSPDSLAVSLGERATINCQSSQSVYNNNYLSWFQQKPGQPPKLLIYGASTLTSGVPDRFSGSGSGTDFTLTISSLQAEDVAVYYCAGGYSGSSDKYAFGGGTKVEIK",
    "Kd": "0.0144 nM"
  },
  {
    "BINDER": "humanized 4A11 variant 8 (antibody, V domains shown, as the VH of m12 (h4A11.v7): rbt4A11 CDRs and rabbit Vernier residues grafted on human germline IGHV4-59*06; as the VL of m11 (h4A11.v6): rbt4A11 CDRs and rabbit Vernier residues grafted on human germline IGKV2-24*01; human IgG1; also called h4A11.v8; v8; source: Expi293F, transient, purified (Protein A, SEC)) VH: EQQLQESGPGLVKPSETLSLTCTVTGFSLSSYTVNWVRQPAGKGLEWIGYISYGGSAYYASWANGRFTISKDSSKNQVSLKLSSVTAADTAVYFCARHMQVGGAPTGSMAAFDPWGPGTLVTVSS VL: DAVLTQTPLSSPVTLGQPASISCQSSQSVYNNNYLSWFQQRPGQPPRLLIYGASTLTSGVPDRFSGSGAGTDFTLKISRVEAEDVGVYYCAGGYSGSSDKYAFGGGTKVEIK",
    "Kd": "0.0141 nM"
  },
  {
    "BINDER": "humanized 4A11 variant 5 (antibody, V domains shown, as the VH of m7 (h4A11.v2): rbt4A11 CDRs and rabbit Vernier residues grafted on human germline IGHV3-48*01; as the VL of m12 (h4A11.v7): rbt4A11 CDRs and rabbit Vernier residues grafted on human germline IGKV3-20*01; human IgG1; also called h4A11.v5; v5; source: Expi293F, transient, purified (Protein A, SEC)) VH: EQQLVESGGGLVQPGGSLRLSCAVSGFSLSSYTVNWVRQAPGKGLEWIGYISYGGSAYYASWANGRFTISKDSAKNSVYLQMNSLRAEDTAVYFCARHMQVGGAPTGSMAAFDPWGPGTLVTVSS VL: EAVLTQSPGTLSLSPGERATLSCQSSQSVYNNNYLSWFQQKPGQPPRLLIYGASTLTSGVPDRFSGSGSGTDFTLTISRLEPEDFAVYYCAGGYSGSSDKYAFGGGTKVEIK",
    "Kd": "0.0139 nM"
  },
  {
    "BINDER": "humanized 4A11 variant 3 (antibody, V domains shown, as the VH of m12 (h4A11.v7): rbt4A11 CDRs and rabbit Vernier residues grafted on human germline IGHV4-59*06; as the VL of m6 (h4A11.v1): rbt4A11 CDRs and rabbit Vernier residues grafted on human germline IGKV4-1*01; human IgG1; also called h4A11.v3; v3; source: Expi293F, transient, purified (Protein A, SEC)) VH: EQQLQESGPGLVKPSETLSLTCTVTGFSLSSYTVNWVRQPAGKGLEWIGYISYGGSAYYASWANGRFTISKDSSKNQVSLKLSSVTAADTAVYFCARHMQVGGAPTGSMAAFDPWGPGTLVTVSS VL: DAVLTQSPDSLAVSLGERATINCQSSQSVYNNNYLSWFQQKPGQPPKLLIYGASTLTSGVPDRFSGSGSGTDFTLTISSLQAEDVAVYYCAGGYSGSSDKYAFGGGTKVEIK",
    "Kd": "0.0121 nM"
  },
  {
    "BINDER": "humanized 4A11 variant 4 (antibody, V domains shown, as the VH of m12 (h4A11.v7): rbt4A11 CDRs and rabbit Vernier residues grafted on human germline IGHV4-59*06; as the VL of m7 (h4A11.v2): rbt4A11 CDRs and rabbit Vernier residues grafted on human germline IGKV1D-39*01; human IgG1; also called h4A11.v4; v4; source: Expi293F, transient, purified (Protein A, SEC)) VH: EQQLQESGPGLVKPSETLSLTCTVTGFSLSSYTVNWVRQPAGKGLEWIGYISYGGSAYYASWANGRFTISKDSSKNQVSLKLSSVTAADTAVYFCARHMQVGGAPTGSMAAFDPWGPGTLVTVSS VL: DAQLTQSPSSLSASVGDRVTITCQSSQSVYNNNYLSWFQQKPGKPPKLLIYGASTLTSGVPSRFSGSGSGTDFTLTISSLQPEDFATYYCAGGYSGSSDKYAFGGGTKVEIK",
    "Kd": "0.0101 nM"
  }
]
